Values were extracted from PubChem BioAssay AID248.

Please respond with reported T/C for every item in the list.
tested on: L1210 leukemia ip in BDF1 mice, survival T/C; test: NCI In Vivo Anticancer Drug Screen. Data for tumor model L1210 Leukemia (intraperitoneal) in B6D2F1 (BDF1) mice; details: endpoint: mean survival time; dose: 25.0 mg/kg/injection; schedule: Q04DX002 (ip); vehicle: saline; higher = longer survival
Inconclusive results and toxic doses are left out.

Record CC(N)c1cccc2ccccc12 (stereo not given) . Reported T/C: 98 % of control

Record CC(=O)CCC(C#N)c1ccccc1 (stereo not given) . Reported T/C: 104 % of control

Record Cn1c2ccccc2[n+]2c(N)scc12 . Reported T/C: 115 % of control

Record CCCCCCCC(=O)N(CC)CC . Reported T/C: 103 % of control

Record C[AsH](C)CC[AsH](C)C.C[AsH](C)CC[AsH](C)C.C[AsH](C)CC[AsH](C)C.[Ni] . Reported T/C: 103 % of control

* * *

Test system: L1210 leukemia ip in BDF1 mice, survival T/C
Assay: NCI In Vivo Anticancer Drug Screen. Data for tumor model L1210 Leukemia (intraperitoneal) in B6D2F1 (BDF1) mice
Details: endpoint: mean survival time; dose: 200.0 mg/kg/injection; schedule: Q04DX003 (ip); vehicle: saline with Tween-80; higher = longer survival
Method: The antitumor activity of compounds was measured in mice bearing transplantable tumors. Survival or tumor size were measured and the results are expressed as the measurement made in the treated group (T) divided by the measurement made in the vehicle treated control group (C). The tumor model used in this assay is L1210 Leukemia (intraperitoneal) in B6D2F1 (BDF1) mice
Inconclusive results and toxic doses are left out.
Please respond with reported T/C for every item in the list.

Record O=C(Nc1cccc(Cl)c1)SCCSC(=O)Nc1cccc(Cl)c1 . Reported T/C: 87 % of control

Record OC(OCCCCCCOC(O)C(Cl)(Cl)Cl)C(Cl)(Cl)Cl (centres undefined) . Reported T/C: 104 % of control

Record C1=CC2C3C=CC(C3)C2C1 (centres undefined) . Reported T/C: 93 % of control

Record O=C(O)C1C2CC3C(OC(=O)C31)C2Br (centres undefined) . Reported T/C: 100 % of control

Record CC(=O)OC1CCC2(C)C(CCC3C2CCC2(C)C(C(C)C(=O)O)CCC32)C1 (centres undefined) . Reported T/C: 98 % of control

Record C=C(C)COc1c(C)cc(C)cc1C=Nc1ccccc1 . Reported T/C: 106 % of control

Record CCOc1nc(=O)n(CC(=O)c2ccc(Cl)s2)cc1F . Reported T/C: 103 % of control

Record Cc1nc2c(=O)n(C)c(=O)n(C)c2n1C . Reported T/C: 98 % of control

Record O=C(O)c1cc(C(=O)O)cc([N+](=O)[O-])c1 . Reported T/C: 95 % of control

Record C#CCN(C)CCO . Reported T/C: 106 % of control

Record CCCCCCCCCCCCCCCCCCOB(OCCCCCCCCCCCCCCCCCC)OCCCCCCCCCCCCCCCCCC . Reported T/C: 108 % of control

Record O=c1[nH]nnc2[nH]ncc12 . Reported T/C: 104 % of control

Record CC(C)NC(=O)C1C2C=CC(C2)C1C(=O)NC(C)C (centres undefined) . Reported T/C: 100 % of control

Record COC(OC)c1nc(SC)[nH]c(=O)c1C . Reported T/C: 116 % of control

Record CCOC(=O)C(Cc1c(C)c(OC)c(CC(C(=O)OCC)C(=O)OCC)c(C)c1OC)C(=O)OCC . Reported T/C: 88 % of control

Record COc1cc2cc3c4cc(OC)c(OC)cc4cc[n+]3c(/C=C/c3cc(OC)c(OC)c(OC)c3)c2cc1OC . Reported T/C: 96 % of control

Record NC(=O)N/N=C/C(c1ccccc1)c1ccccc1 . Reported T/C: 94 % of control

Record O=C(Nc1ccccc1C(F)(F)F)Oc1ccc(Cl)cc1Cl . Reported T/C: 102 % of control

Record O=C(/C=C/c1ccccc1)NC(=S)Nc1ccccc1F . Reported T/C: 87 % of control

Record CCOC(=O)c1ccc(NC(=O)c2ccc(Cl)c(Cl)c2)cc1 . Reported T/C: 108 % of control

Record COc1ccc(Cl)cc1NC1=CC(c2ccc(Cl)cc2)OC1=O (centres undefined) . Reported T/C: 100 % of control

Record CCCCCCCCCCCCCCCCOc1ccccc1C(C)=O . Reported T/C: 98 % of control

Record C=CC(C)C1CCC2(C)C3=C(C(=O)CC12C)C1(C)CCC(OC(C)=O)C(C)(C)C1=C(OC(C)=O)C3=O (centres undefined) . Reported T/C: 91 % of control

Record CC(=O)Nc1ccn(CC(=O)c2ccco2)c(=O)n1 . Reported T/C: 90 % of control

* * *

tested on: L1210 leukemia ip in BDF1 mice, survival T/C; experiment: NCI In Vivo Anticancer Drug Screen. Data for tumor model L1210 Leukemia (intraperitoneal) in B6D2F1 (BDF1) mice; conditions: endpoint: mean survival time; dose: 100.0 mg/kg/injection; schedule: Q01DX009 (ip); vehicle: saline with Tween-80; higher = longer survival
Toxic doses and inconclusive results are not listed.
property_label: T/C

Record OC(c1ccccc1)(c1ccccc1)c1ccc(F)cc1 . Reported T/C: 102 % of control

Record Cc1ccc(C)c(CCO)c1 . Reported T/C: 100 % of control

Record O=c1[nH]c(C(F)(F)F)nc2c1nc1n2CCC1 . Reported T/C: 103 % of control

Record CCC(CO)C(C)C (configuration not stated) . Reported T/C: 102 % of control

Record CC1=C(C)CC(C(Cl)(Cl)Cl)C([N+](=O)[O-])C1 (configuration not stated) . Reported T/C: 96 % of control

Record O=C1NC(=O)C(c2ccccc2)(C2CCC2)N1 (configuration not stated) . Reported T/C: 93 % of control

Record CC1(C)C=C2OC(=O)CCC2(C)CC1 (configuration not stated) . Reported T/C: 109 % of control

Record COc1ccc(NC(=S)NN)cc1 . Reported T/C: 95 % of control

Record CC(=O)Nc1nc(=O)n(CC(=O)c2cccs2)cc1F . Reported T/C: 98 % of control

Record CCCCCCCCCCCCCCCCCCO . Reported T/C: 99 % of control

Record COc1cccc(OC)c1C1(O)c2c(OC)cccc2Oc2cccc(OC)c21 . Reported T/C: 93 % of control

Record O=C(Cl)c1ccccc1/C=C/c1ccccc1 . Reported T/C: 89 % of control

Record Cc1ccc(C(=O)/C=C/c2ccccc2O)cc1 . Reported T/C: 100 % of control

Record COC(OC)c1nc(SC)[nH]c(=O)c1C . Reported T/C: 88 % of control

Record CCCCOc1cc(C(=O)O)ccc1[N+](=O)[O-] . Reported T/C: 98 % of control

Record Cc1cc(=O)[nH]c(Nc2ccccc2)n1 . Reported T/C: 90 % of control

Record C1=Cc2cccc3c2N(C1)CCC3 (tested in a mixture with another compound) . Reported T/C: 103 % of control

Record CCCCC=C1CC(C)CC(C)C1 (configuration not stated) . Reported T/C: 93 % of control

Record COc1ccc(C(=O)C[N+](=O)[O-])cc1 . Reported T/C: 94 % of control

Record CC(=O)OCC(CCn1ccc(=O)[nH]c1=O)COC(C)=O . Reported T/C: 93 % of control

Record O=C1C(Br)C2CCC1C2C(=O)O (configuration not stated) . Reported T/C: 103 % of control

Record O=C1CCCNc2ccccc21 . Reported T/C: 98 % of control

Record COc1ccc(CCOS(=O)(=O)c2ccc(C)cc2)cc1 . Reported T/C: 100 % of control

Record O=C(Nc1ccccc1C(F)(F)F)OCCSc1ccc(Cl)cc1 . Reported T/C: 95 % of control

Record CCCCCCCCCCCC[Si](CCCCCCCCCCCC)(c1ccccc1)c1ccccc1 . Reported T/C: 91 % of control

Record Cc1cc([N+](=O)[O-])c(Nc2ccc(F)cc2)c([N+](=O)[O-])c1 . Reported T/C: 97 % of control

Record NC(=O)c1cn[nH]c1/N=N/N1CCCC1C(=O)O (configuration not stated) . Reported T/C: 111 % of control

* * *

tested on: L1210 leukemia ip in BDF1 mice, survival T/C; assay: NCI In Vivo Anticancer Drug Screen. Data for tumor model L1210 Leukemia (intraperitoneal) in B6D2F1 (BDF1) mice; conditions: endpoint: mean survival time; dose: 400.0 mg/kg/injection; schedule: Q01DX001 (ip); vehicle: saline; higher = longer survival
Inconclusive results and toxic doses are left out.
Please respond with reported T/C for every item in the list.

Summary line: OCC1OC(n2cnc3c(SSc4ncnc5c4ncn5C4OC(CO)C(O)C4O)ncnc32)C(O)C1O (stereo unspecified) , L1210 leukemia ip in BDF1 mice, survival T/C, reported T/C = 121 % of control

Summary line: COc1ccccc1C(=O)OCC(=O)c1ccc(-c2ccccc2)cc1 , L1210 leukemia ip in BDF1 mice, survival T/C, reported T/C = 94 % of control

Summary line: CC(C(c1ccccc1)c1ccc(Cl)cc1)[N+](=O)[O-] (stereo unspecified) , L1210 leukemia ip in BDF1 mice, survival T/C, reported T/C = 88 % of control

Summary line: O=c1c2ccccc2ncn1C1OC(CO)C(O)C1O (stereo unspecified) , L1210 leukemia ip in BDF1 mice, survival T/C, reported T/C = 104 % of control

Summary line: COC(=O)c1[nH]cnc1/N=N/N(C)CCO , L1210 leukemia ip in BDF1 mice, survival T/C, reported T/C = 102 % of control

Summary line: CN(C)CCCN1CC2CCCC1O2 (stereo unspecified) , L1210 leukemia ip in BDF1 mice, survival T/C, reported T/C = 94 % of control
